Record set of Ki for target or system A2A receptor (Homo sapiens, UniProt P29274).
Your answer should be a number followed by the unit of measure.

INSERT INTO assay_data (compound, endpoint_value) VALUES
  ('COCCOc1ccc(N2CCN(CCN(C)c3nc(N)n4nc(-c5ncco5)nc4n3)CC2)cc1 [Compound 2]', '7 nM'),
  ('COCCOc1ccc(N2CCN(CCN(C)c3cc4nc(-c5ccco5)nn4c(N)n3)CC2)cc1 [Reference compound, reference compound]', '2.6 nM'),
  ('COCCOc1cnc(N2CCN(CCN(C)c3cc4nc(-c5ncco5)nn4c(N)n3)CC2)c(C(F)(F)F)c1 [Compound 19]', '4 nM');

Read the next record carefully.
Observed Ki, A2A receptor (Homo sapiens, UniProt P29274), COCCOc1ccc(N2CCN(CCN(C)c3cc4nc(-c5ncco5)nn4c(N)n3)CC2)cc1 [Compound 1] : 6 nM

----------
Record set of pKi for target or system A2A receptor (Homo sapiens, UniProt P29274).
Remember the convention: pKi equals -log10 of concentration in molar.

Record excerpt, results attached:
INSERT INTO measurements (molecule, readout_name, endpoint_value) VALUES
  ('[2H]C([2H])([2H])OC([2H])([2H])C([2H])([2H])Oc1ccc(N2CCN(C([2H])([2H])C([2H])([2H])N(c3cc4nc(-c5ncco5)nn4c(N)n3)C([2H])([2H])[2H])CC2)cc1 [Compound 16]', 'pKi', 8.40),
  ('[2H]C([2H])([2H])OC([2H])([2H])C([2H])([2H])Oc1ccc(N2CCN(CCN(c3cc4nc(-c5ncco5)nn4c(N)n3)C([2H])([2H])[2H])CC2)cc1 [Compound 18]', 'pKi', 8.10),
  ('COCCOc1cnc(N2CCN(CCN(C)c3cc4nc(-c5ncco5)nn4c(N)n3)CC2)c(F)c1 [Compound 4]', 'pKi', 8.70),
  ('COCCOc1ccc(N2CCN(CCN(C)c3cc4nc(-c5ncco5)nn4c(N)n3)CC2)c(OC)c1 [Compound 17]', 'pKi', 7.70),
  ('COCCOc1ncc(N2CCN(CCN(C)c3cc4nc(-c5ncco5)nn4c(N)n3)CC2)cc1C(F)(F)F [Compound 22]', 'pKi', 7.96);

Observed pKi, A2A receptor (Homo sapiens, UniProt P29274), [2H]C([2H])([2H])OC([2H])([2H])C([2H])([2H])Oc1ccc(N2CCN(CCN(C)c3cc4nc(-c5ncco5)nn4c(N)n3)CC2)cc1 [Compound 12] : 8.40

----------
# clearance annotations
experiment-notes: Plasma pharmacokinetic parameters following intravenous (IV) or oral (PO) administration in rats
Type: in vivo, Sprague-Dawley rats
settings: male, Sprague-Dawley, rat, plasma, iv, 0.5 mg/kg, IV 0.5 mg/kg, injectable water
# output: bare number, implied unit mL/min/kg

INSERT INTO measurements (compound, endpoint_value) VALUES
  ('COCCOc1cnc(N2CCN(CCN(C)c3cc4nc(-c5ncco5)nn4c(N)n3)CC2)c(Cl)c1 [Compound 14]', 16.6);

Read the next record carefully.
The compound listed as COCCOc1cnc(N2CCN(CCN(C)c3cc4nc(-c5ncco5)nn4c(N)n3)CC2)c(C(F)(F)F)c1 [Compound 19] has a reported clearance of 6.85

----------
experiment-notes: Plasma pharmacokinetic parameters following intravenous (IV) or oral (PO) administration in rats
Format: in vivo, Sprague-Dawley rats
settings: male, Sprague-Dawley, rat, plasma, iv, 0.5 mg/kg, IV 0.5 mg/kg, injectable water
readout-name: AUC(0-inf) (ng·h/mL)
# output: bare number, implied unit ng·h/mL

Record excerpt, results attached:
INSERT INTO results (compound, uom, endpoint_value) VALUES
  ('COCCOc1ccc(N2CCN(CCN(C)c3cc4nc(-c5ncco5)nn4c(N)n3)CC2)cc1 [Compound 1]', 'ng·h/mL', 340),
  ('COCCOc1cnc(N2CCN(CCN(C)c3cc4nc(-c5ncco5)nn4c(N)n3)CC2)c(C(F)(F)F)c1 [Compound 19]', 'ng·h/mL', 1230),
  ('COCCOc1cnc(N2CCN(CCN(C)c3cc4nc(-c5ncco5)nn4c(N)n3)CC2)c(F)c1 [Compound 4]', 'ng·h/mL', 251);

The compound listed as COCCOc1cnc(N2CCN(CCN(C)c3cc4nc(-c5ncco5)nn4c(N)n3)CC2)c(Cl)c1 [Compound 14] has a reported AUC(0-inf) of 526

----------
tested-on: A1 receptor (Homo sapiens, UniProt P30542)
Sequence (P30542 whole entry): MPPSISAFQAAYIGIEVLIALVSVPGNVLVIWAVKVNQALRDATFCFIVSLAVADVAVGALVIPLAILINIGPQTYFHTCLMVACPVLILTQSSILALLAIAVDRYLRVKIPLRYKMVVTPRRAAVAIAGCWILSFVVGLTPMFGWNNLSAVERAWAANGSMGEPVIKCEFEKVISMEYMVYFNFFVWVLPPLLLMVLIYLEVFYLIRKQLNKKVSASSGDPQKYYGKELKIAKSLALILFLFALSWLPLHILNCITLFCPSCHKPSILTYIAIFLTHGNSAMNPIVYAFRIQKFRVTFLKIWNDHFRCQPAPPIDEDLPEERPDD
readout-name: pKi
Remember the convention: pKi equals -log10 of concentration in molar.

Record excerpt, results attached:
INSERT INTO results (sample_smiles, endpoint_value) VALUES
  ('COCCOc1cnc(N2CCN(CCN(C)c3cc4nc(-c5ncco5)nn4c(N)n3)CC2)c(Cl)c1', 4.82),
  ('COCCOc1cnc(N2CCN(CCN(C)c3cc4nc(-c5ncco5)nn4c(N)n3)CC2)c(C(F)(F)F)c1', 4.80);

Read the next record carefully.
Observed pKi, A1 receptor (Homo sapiens, UniProt P30542), `COCCOc1cnc(N2CCN3[C@H](CC[C@H]3CN(C)c3cc4nc(-c5ncco5)nn4c(N)n3)C2)c(F)c1` : 5.51

----------
experiment-notes: Plasma pharmacokinetic parameters following intravenous (IV) or oral (PO) administration in rats
Type: in vivo, Sprague-Dawley rats
settings: male, Sprague-Dawley, rat, plasma, po, 2.5 mg/kg, PO 2.5 mg/kg via gavage, injectable water
Experimental: Adult male Sprague-Dawley rats (230-250 g) (Charles River Labs, Hollister, CA) were utilized for the study. There were 2 rats/group. All animals were food fasted overnight with water provided ad libitum at all times. […] The morning of each dosing, individual doses were calculated based on current body weights on the day of dosing. […] Pharmacokinetic parameters (PK) were determined by non-compartmental analysis (NCA) using Phoenix 64 WinNonlin (version 8) and Dotmatics (version 5.0). […]
# AUC(0-t) annotations
Your answer should be a number followed by the unit of measure.

INSERT INTO assay_data (sample_smiles, endpoint_value) VALUES
  ('COCCOc1cnc(N2CCN(CCN(C)c3cc4nc(-c5ncco5)nn4c(N)n3)CC2)c(F)c1', '898 ng·h/mL');

The compound listed as `COCCOc1ccc(N2CCN(CCN(C)c3cc4nc(-c5ncco5)nn4c(N)n3)CC2)cc1` has a reported AUC(0-t) of 1220 ng·h/mL

The compound listed as `COCCOc1cnc(N2CCN(CCN(C)c3cc4nc(-c5ncco5)nn4c(N)n3)CC2)c(C(F)(F)F)c1` has a reported AUC(0-t) of 4980 ng·h/mL

The compound listed as `COCCOc1cnc(N2CCN(CCN(C)c3cc4nc(-c5ncco5)nn4c(N)n3)CC2)c(Cl)c1` has a reported AUC(0-t) of 1370 ng·h/mL

----------
# Kp at 1 h annotations
experiment-notes: Brain-to-plasma ratio (B/P) after administration
Format: in vivo, Sprague-Dawley rats
settings: Sprague-Dawley, rat, oral, 2.5 mg/kg; Table 6; brain-to-plasma ratio at 1 h

INSERT INTO assay_data (sample_smiles, readout_name, endpoint_value) VALUES
  ('[2H]C([2H])([2H])OCCOc1ccc(N2CCN(CCN(c3cc4nc(-c5ncco5)nn4c(N)n3)C([2H])([2H])[2H])CC2)cc1', 'Kp at 1 h', 0.04),
  ('[2H]C([2H])([2H])OC([2H])([2H])C([2H])([2H])Oc1cnc(N2CCN(CCN(C)c3cc4nc(-c5ncco5)nn4c(N)n3)CC2)c(F)c1', 'Kp at 1 h', 0.06);

Read the next record carefully.
The compound listed as `COCCOc1ccc(N2CCN(CCN(C)c3nc(N)n4nc(-c5ncco5)nc4n3)CC2)cc1` has a reported Kp at 1 h of 0.04

----------
experiment-notes: Brain-to-plasma ratio (B/P) after administration
Format: in vivo, Sprague-Dawley rats
settings: Sprague-Dawley, rat, oral, 2.5 mg/kg; Table 6; brain-to-plasma ratio at 1 h
I would appreciate it if you labelled entries condition met when Kp at 1 h is 0.05 or higher, otherwise condition not met.

// inclusive: Kp at 1 h at least 0.05? input: `COCCOc1ccc(N2CCN(CCN(C)c3cc4nc(-c5ncco5)nn4c(N)n3)CC2)nc1`
condition met

// inclusive: Kp at 1 h at least 0.05? input: `COCCOc1ccc(N2CCN(CCNc3cc4nc(-c5ncco5)nn4c(N)n3)CC2)cc1`
condition met

----------
tested-on: A2A receptor (Homo sapiens, UniProt P29274)
Construct: purchased
Sequence (P29274 whole entry): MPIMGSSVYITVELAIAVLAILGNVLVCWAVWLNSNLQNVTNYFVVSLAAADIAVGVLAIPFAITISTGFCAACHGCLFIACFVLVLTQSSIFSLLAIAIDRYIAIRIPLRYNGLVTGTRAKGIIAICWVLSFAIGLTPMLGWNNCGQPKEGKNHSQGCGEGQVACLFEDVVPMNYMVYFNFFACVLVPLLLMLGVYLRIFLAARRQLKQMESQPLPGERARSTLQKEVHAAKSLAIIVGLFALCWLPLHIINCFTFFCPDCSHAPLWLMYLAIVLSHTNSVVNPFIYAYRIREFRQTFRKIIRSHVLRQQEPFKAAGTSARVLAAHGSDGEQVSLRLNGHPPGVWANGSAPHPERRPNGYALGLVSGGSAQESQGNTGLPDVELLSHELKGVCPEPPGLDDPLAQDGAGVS
experiment-notes: Radioligand receptor binding assay, A2A receptor
settings: cell membranes overexpressing A2A receptor, read-out: Potency Ki A2A
readout-name: Ki (nM)
# output: bare number, implied unit nM

Record excerpt, results attached:
INSERT INTO measurements (sample_smiles, endpoint_value) VALUES
  ('[2H]C([2H])([2H])OC([2H])([2H])C([2H])([2H])Oc1cnc(N2CCN(CCN(C)c3cc4nc(-c5ncco5)nn4c(N)n3)CC2)c(F)c1', 4),
  ('COCCOc1cnc(N2CCN(CCN(C)c3cc4nc(-c5ncco5)nn4c(N)n3)CC2)c(Cl)c1', 4),
  ('CN(CCN1CCN(c2ccc(OCCOC(F)(F)F)cc2)CC1)c1cc2nc(-c3ncco3)nn2c(N)n1', 7);

Read the next record carefully.
Observed Ki, A2A receptor (Homo sapiens, UniProt P29274), `COCCOc1ccc(N2CCN(CCNc3cc4nc(-c5ncco5)nn4c(N)n3)CC2)cc1` : 43
